Catalogue of apparent KD of MS2 coat protein values
Tested on: MS2 coat protein
Assay: apparent KD of MS2 coat protein; designed switch direction (-1 OFF switch, 1 ON switch): -1; higher = weaker reporter binding
Details: input ligand: none
measured endpoint: apparent KD of MS2 coat protein

macromolecule sequence	meas value
CGCCUACAUGAGGAUCACCCAUGUGAGGAUAUCCUGCGAGGAUCAAAAGAUCCUCGUGGGAGAAGGCGCCUGGA [Omei Ex1 B6] (Eterna round: R97, puzzle: Exclusion 1)	13.1 nM
GCAGCAUAGUUUACUAACUGUUACAUGAGGAUCACCCAUGUCUAGGAUAUGGUCUGGAUUACAGGCCAGAAGGAGGCAAGCUGC [Eli exng3 - 035] (Eterna round: R96, puzzle: Exclusion NG 3)	19.8 nM
ACAUGAGGAUCACCCAUGUCCGGCUGGUCUGUUCCGGCUGUCGAGGAUAUAGUCCGGUGUUCGCGCUAGAAGGUGAGGGCUGGA [Aenatbe mod 45] (Eterna round: R96, puzzle: Exclusion NG 3)	70.1 nM
ACGCCAGGAGGAUAUGCAAUAAGUAACAUGAGGAUCACCCAUGUUCGGGCGAUGCUCGUGGCAGAAGGCCUAGCCG [Edteonra] (Eterna round: R97, puzzle: Exclusion 5)	36.1 nM
CCUCUACAUGAGGAUCACCCAUGUCAGGAUAUGCGAAUUUCAUCAAAAGAUGAAAUUUGCAGAAGGGACUAAGC [Omei Ex1 A34] (Eterna round: R97, puzzle: Exclusion 1)	246 nM
